// inhibition lookup, one value per entry
Target: Inhibitor of nuclear factor kappa-B kinase subunit alpha (Homo sapiens) (UniProt O15111);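 note: mean inhibition of IKKA, from the GSK PKIS data set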
Sequence (O15111 whole entry): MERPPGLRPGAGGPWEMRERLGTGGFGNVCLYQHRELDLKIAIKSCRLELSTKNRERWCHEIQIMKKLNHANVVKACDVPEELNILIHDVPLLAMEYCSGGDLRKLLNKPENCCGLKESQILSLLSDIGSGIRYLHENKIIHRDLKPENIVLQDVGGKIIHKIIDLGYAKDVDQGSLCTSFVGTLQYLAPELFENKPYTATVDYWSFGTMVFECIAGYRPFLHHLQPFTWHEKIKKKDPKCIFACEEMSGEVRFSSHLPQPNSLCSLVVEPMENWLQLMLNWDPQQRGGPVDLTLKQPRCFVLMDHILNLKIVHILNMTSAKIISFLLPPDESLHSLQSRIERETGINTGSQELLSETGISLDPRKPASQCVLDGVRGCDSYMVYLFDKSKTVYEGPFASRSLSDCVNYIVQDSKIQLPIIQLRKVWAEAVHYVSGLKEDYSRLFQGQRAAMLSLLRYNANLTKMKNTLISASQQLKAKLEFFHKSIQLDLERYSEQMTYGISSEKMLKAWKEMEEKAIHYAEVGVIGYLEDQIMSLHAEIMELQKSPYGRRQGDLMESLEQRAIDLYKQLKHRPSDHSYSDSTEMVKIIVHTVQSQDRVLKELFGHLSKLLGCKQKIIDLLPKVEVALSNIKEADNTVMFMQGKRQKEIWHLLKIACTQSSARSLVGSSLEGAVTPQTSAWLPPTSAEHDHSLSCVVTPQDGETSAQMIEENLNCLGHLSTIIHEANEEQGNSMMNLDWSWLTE
Conditions: at 1 µM

[
  {
    "compound": "Cc1nnc(-c2ccc(C)c(-c3ccc(C(=O)NCc4ccc(Cl)cc4)cc3)c2)o1",
    "u": "%",
    "inhibition": 5.98
  },
  {
    "compound": "C#Cc1cccc(Nc2ncnc3ccc(OCCCCNCCS(C)(=O)=O)cc23)c1",
    "u": "%",
    "inhibition": 12.2
  },
  {
    "compound": "c1ccc(Oc2ccc(Nc3ncc(-c4ccccc4)o3)cc2)cc1",
    "u": "%",
    "inhibition": -0.96
  },
  {
    "compound": "O=C(NCC1CC1)c1ccc(-c2cccc(C(=O)NC3CC3)c2)cc1",
    "u": "%",
    "inhibition": 0.42
  },
  {
    "compound": "Nc1nccc(-c2c(-c3ccc(F)cc3)ncn2C2CCC(O)CC2)n1 (stereo unspecified)",
    "u": "%",
    "inhibition": 5.56
  },
  {
    "compound": "Fc1ccc(-c2c(-c3ccncc3)nc3n2CCS3)cc1",
    "u": "%",
    "inhibition": 3.05
  }
]

* * *

Target: Fibroblast growth factor receptor 1 (Homo sapiens) (UniProt P11362);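 note: values are the mean percent inhibition of FGFR1 across replicate measurements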
Sequence (P11362 22-822 limits assumed): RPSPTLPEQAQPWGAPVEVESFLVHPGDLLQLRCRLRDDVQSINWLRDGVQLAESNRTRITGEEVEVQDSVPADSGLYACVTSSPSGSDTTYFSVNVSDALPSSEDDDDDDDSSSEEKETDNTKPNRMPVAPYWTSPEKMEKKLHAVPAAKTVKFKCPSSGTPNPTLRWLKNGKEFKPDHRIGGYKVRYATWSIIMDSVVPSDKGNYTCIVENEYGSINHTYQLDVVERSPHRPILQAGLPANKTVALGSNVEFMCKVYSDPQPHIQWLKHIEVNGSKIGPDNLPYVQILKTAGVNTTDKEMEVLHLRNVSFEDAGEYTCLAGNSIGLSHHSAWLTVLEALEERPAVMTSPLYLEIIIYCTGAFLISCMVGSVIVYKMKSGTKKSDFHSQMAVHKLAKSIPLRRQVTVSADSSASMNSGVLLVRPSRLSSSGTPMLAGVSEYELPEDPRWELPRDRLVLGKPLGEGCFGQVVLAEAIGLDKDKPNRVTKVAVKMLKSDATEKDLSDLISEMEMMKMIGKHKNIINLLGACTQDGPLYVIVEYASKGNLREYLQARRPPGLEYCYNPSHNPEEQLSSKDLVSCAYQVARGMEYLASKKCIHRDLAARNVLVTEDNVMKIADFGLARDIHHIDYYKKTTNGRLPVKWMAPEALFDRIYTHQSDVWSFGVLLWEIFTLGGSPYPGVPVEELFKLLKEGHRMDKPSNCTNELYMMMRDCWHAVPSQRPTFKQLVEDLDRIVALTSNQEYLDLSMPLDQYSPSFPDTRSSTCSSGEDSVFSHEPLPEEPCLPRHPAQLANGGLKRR
Settings: at 1 µM
test.readout: inhibition (%)

[
  {
    "compound.string": "CCC(=O)Nc1ccc(C)c(-c2ccc(C(=O)NCC3CC3)cc2)c1",
    "target": "Fibroblast growth factor receptor 1 (Homo sapiens) (UniProt P11362)",
    "u": "%",
    "data.value": 4.4
  },
  {
    "compound.string": "O=C1Nc2ccccc2/C1=C/Nc1ccc(-n2cncn2)cc1",
    "target": "Fibroblast growth factor receptor 1 (Homo sapiens) (UniProt P11362)",
    "u": "%",
    "data.value": 9.98
  },
  {
    "compound.string": "C[C@@H](Oc1cc(-n2cnc3ccc(OC4CCN(C)CC4)cc32)sc1C(N)=O)c1ccccc1Cl",
    "target": "Fibroblast growth factor receptor 1 (Homo sapiens) (UniProt P11362)",
    "u": "%",
    "data.value": 9.26
  },
  {
    "compound.string": "FC(F)(F)c1cccc(Nc2nccc(-c3cnn4nc(-c5ccccc5)ccc34)n2)c1",
    "target": "Fibroblast growth factor receptor 1 (Homo sapiens) (UniProt P11362)",
    "u": "%",
    "data.value": -0.07
  },
  {
    "compound.string": "CCS(=O)(=O)c1ccc(OC)c(Nc2ncc(-c3ccccc3Cl)o2)c1",
    "target": "Fibroblast growth factor receptor 1 (Homo sapiens) (UniProt P11362)",
    "u": "%",
    "data.value": 7.29
  },
  {
    "compound.string": "Fc1ccc(-c2ncn(C3CCNCC3)c2-c2ccnc(Oc3ccc(Oc4ccccc4)cc3)n2)cc1",
    "target": "Fibroblast growth factor receptor 1 (Homo sapiens) (UniProt P11362)",
    "u": "%",
    "data.value": 2.81
  },
  {
    "compound.string": "CCc1cccc(CC)c1/C=C/c1cncc(C(=O)NC)c1",
    "target": "Fibroblast growth factor receptor 1 (Homo sapiens) (UniProt P11362)",
    "u": "%",
    "data.value": 11.8
  }
]

* * *

Biological target: Phosphatidylinositol 4,5-bisphosphate 3-kinase catalytic subunit delta isoform (Homo sapiens) (UniProt O00329);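 note: values are mean percent inhibition of PI3K-delta, part of the GSK PKIS screen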
Sequence (O00329 whole entry, canonical isoform): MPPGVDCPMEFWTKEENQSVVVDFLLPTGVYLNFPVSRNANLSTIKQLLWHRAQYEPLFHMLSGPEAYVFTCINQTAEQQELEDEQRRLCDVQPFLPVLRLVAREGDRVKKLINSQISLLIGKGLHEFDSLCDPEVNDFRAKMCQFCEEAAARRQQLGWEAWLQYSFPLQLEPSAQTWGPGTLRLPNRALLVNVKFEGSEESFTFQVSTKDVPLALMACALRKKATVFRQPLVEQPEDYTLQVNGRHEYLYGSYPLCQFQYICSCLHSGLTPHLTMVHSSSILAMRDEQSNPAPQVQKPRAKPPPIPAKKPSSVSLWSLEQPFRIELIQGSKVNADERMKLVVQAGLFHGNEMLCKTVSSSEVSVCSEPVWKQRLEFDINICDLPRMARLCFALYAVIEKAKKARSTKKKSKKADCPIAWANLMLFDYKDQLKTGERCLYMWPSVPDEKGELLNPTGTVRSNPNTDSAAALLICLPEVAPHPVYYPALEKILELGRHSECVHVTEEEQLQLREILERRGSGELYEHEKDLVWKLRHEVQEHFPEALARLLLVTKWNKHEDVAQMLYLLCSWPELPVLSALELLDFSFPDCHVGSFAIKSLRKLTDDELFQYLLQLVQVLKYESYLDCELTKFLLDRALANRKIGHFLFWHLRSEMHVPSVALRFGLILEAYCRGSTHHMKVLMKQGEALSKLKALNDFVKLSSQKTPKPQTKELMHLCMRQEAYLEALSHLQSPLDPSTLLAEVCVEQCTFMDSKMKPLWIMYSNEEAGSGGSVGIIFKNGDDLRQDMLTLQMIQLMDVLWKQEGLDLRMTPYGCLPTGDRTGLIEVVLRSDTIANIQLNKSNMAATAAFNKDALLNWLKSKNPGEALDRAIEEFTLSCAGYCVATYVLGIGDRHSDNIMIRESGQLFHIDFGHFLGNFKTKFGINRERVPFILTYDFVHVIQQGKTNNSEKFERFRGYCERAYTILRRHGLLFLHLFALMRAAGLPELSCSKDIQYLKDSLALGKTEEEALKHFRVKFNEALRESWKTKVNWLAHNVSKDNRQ
Details: at 0.1 µM

[
  {
    "compound": "CN1CCN(CCCNc2nc3ccc(Oc4ccc(NC(=O)Nc5cc(C(F)(F)F)ccc5F)cc4)cc3[nH]2)CC1",
    "inhibition": "1.3%"
  },
  {
    "compound": "COc1ccc2cc(-c3c(-c4ccncc4)nc(-c4ccc(S(C)(=O)=O)cc4C)n3C)ccc2c1",
    "inhibition": "1.31%"
  },
  {
    "compound": "Cc1ccc(NC(=O)c2ccoc2)cc1-c1ccc(C(=O)NCC2CC2)cc1",
    "inhibition": "1.77%"
  },
  {
    "compound": "NCc1ccc(-n2c(-c3nonc3N)nc3cnccc32)cc1",
    "inhibition": "3.69%"
  },
  {
    "compound": "COc1cc2ncn(-c3cc(OCCc4ccccc4)c(C(N)=O)s3)c2cc1OC",
    "inhibition": "2.55%"
  },
  {
    "compound": "NC(=O)c1ccc(Oc2nccc(-c3c(-c4ccc(F)cc4)ncn3C3CCNCC3)n2)cc1",
    "inhibition": "0.53%"
  },
  {
    "compound": "O=C(Nc1n[nH]c2nc(-c3ccco3)ccc12)C1CC1",
    "inhibition": "-0.99%"
  },
  {
    "compound": "COc1cc(Nc2ncc(-c3ccccc3)o2)cc(OC)c1OC",
    "inhibition": "2.6%"
  },
  {
    "compound": "CN(C)c1ccc2c(c1)/C(=C/Nc1ccc(S(N)(=O)=O)cc1)C(=O)N2",
    "inhibition": "0.7%"
  },
  {
    "compound": "CCN(CC)Cc1ccc(Nc2nccc(-c3cnn4ncccc34)n2)cc1",
    "inhibition": "6.31%"
  },
  {
    "compound": "COc1cccc(/C=N/Nc2ncnc3c2cnn3-c2cccc(OC)c2)c1",
    "inhibition": "0.9%"
  },
  {
    "compound": "NS(=O)(=O)c1ccc(N/N=C2\\C(=O)Nc3ccc(-c4cnco4)cc32)cc1",
    "inhibition": "0.72%"
  },
  {
    "compound": "Fc1ccc(-c2ncn(C3CCNCC3)c2-c2ccnc(Oc3ccc(Oc4ccccc4)cc3)n2)cc1",
    "inhibition": "-0.16%"
  },
  {
    "compound": "NS(=O)(=O)c1ccc(Nc2cc(-c3ccc(O)c(F)c3)n[nH]2)cc1",
    "inhibition": "-0.68%"
  },
  {
    "compound": "NC(=O)Cc1ccccc1Oc1nccc(-c2c(-c3ccc(F)cc3)ncn2C2CCNCC2)n1",
    "inhibition": "2.67%"
  },
  {
    "compound": "CN(C)CCCNc1nccc(-c2c(-c3ccc(F)cc3)nn3cc(C(F)(F)F)ccc23)n1",
    "inhibition": "2.6%"
  },
  {
    "compound": "C#Cc1cccc(Nc2ncnc3ccc(OCCCCNCCS(C)(=O)=O)cc23)c1",
    "inhibition": "2.6%"
  },
  {
    "compound": "C/C(Nc1ccc(S(N)(=O)=O)cc1)=C1/C(=O)Nc2ccccc21",
    "inhibition": "2.42%"
  },
  {
    "compound": "N#Cc1ccc(Oc2nccc(-c3c(-c4ccc(F)cc4)ncn3C3CCNCC3)n2)cc1",
    "inhibition": "2.8%"
  },
  {
    "compound": "COc1cc(Nc2ncc3c(C)nc(-c4cccc(Oc5ccccc5)c4)n3n2)cc(OC)c1OC",
    "inhibition": "0.25%"
  },
  {
    "compound": "COc1ccc2cc(-c3c(-c4ccncc4)nc(-c4ccc([S+](C)[O-])cc4C)n3C)ccc2c1 (stereo not drawn)",
    "inhibition": "-2.38%"
  },
  {
    "compound": "CN(C)CCOc1ccc(-c2cc(-c3ccc4c(c3)CCC4=NO)c(-c3ccncc3)o2)cc1",
    "inhibition": "2.02%"
  },
  {
    "compound": "CCS(=O)(=O)c1ccc(OC)c(Nc2ncc(-c3cccc(-c4ccccc4F)c3)o2)c1",
    "inhibition": "2.24%"
  }
]

* * *

Target: Tyrosine-protein kinase HCK (Homo sapiens) (UniProt P08631);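 note: values are averaged percent inhibition of HCK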
Sequence (P08631 2-526 limits assumed): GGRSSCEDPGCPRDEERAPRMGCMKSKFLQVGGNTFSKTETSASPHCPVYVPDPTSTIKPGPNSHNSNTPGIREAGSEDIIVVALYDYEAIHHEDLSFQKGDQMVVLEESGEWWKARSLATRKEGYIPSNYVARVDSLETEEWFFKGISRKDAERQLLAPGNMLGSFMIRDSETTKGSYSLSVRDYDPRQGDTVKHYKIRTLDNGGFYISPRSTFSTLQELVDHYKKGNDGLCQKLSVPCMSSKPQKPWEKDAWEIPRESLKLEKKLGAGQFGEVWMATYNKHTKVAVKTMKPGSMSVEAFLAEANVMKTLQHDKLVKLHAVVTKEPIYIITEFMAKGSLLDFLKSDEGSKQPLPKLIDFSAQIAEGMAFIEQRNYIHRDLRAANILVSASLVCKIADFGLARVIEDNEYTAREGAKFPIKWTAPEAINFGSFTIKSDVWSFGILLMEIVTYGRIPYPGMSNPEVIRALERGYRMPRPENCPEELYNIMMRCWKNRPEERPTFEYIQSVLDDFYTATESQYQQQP
Details: at 1 µM

[
  {
    "compound.string": "CN1CCN(CCCNc2nc3ccc(Oc4ccc(NC(=O)Nc5cc(C(F)(F)F)ccc5F)cc4)cc3[nH]2)CC1",
    "u": "%",
    "inhibition": 9.14
  },
  {
    "compound.string": "O=C1Nc2ccc(I)cc2C1=Cc1cc(Br)c(O)c(Br)c1",
    "u": "%",
    "inhibition": 8.5
  },
  {
    "compound.string": "Cc1ccc(NC(=O)c2ccoc2)cc1-c1ccc(C(=O)NCC2CC2)cc1",
    "u": "%",
    "inhibition": 5.55
  },
  {
    "compound.string": "COc1cc(Nc2ncc3c(C)nc(-c4cccc(Oc5ccccc5)c4)n3n2)cc(OC)c1OC",
    "u": "%",
    "inhibition": 5.25
  },
  {
    "compound.string": "Cc1ccc(C(=O)NC2CCC2)cc1-c1ccc(C(=O)NCC2CC2)cc1",
    "u": "%",
    "inhibition": 6.65
  },
  {
    "compound.string": "COc1cc2ncn(-c3cc(OCc4ccccc4C(F)(F)F)c(C(C)=O)s3)c2cc1OC",
    "u": "%",
    "inhibition": 9.81
  },
  {
    "compound.string": "COc1cc(Nc2ncc3c(C)nc(-c4cccc(C(F)(F)F)c4)n3n2)cc(OC)c1OC",
    "u": "%",
    "inhibition": 22.6
  },
  {
    "compound.string": "COc1cc(N2CCN(C(C)C)CC2)ccc1Nc1nc(Nc2ccc(F)cc2C(=O)NC[C@@H](O)CO)c2cc[nH]c2n1",
    "u": "%",
    "inhibition": 5
  },
  {
    "compound.string": "Fc1ccc(-c2ncn(C3CCNCC3)c2-c2ccnc(Oc3ccc(Oc4ccccc4)cc3)n2)cc1",
    "u": "%",
    "inhibition": 8.1
  },
  {
    "compound.string": "CS(=O)(=O)CCNCc1ccc(-c2ccc3ncnc(Nc4ccc(OCc5ccccc5)c(Br)c4)c3c2)o1",
    "u": "%",
    "inhibition": 10.2
  },
  {
    "compound.string": "NS(=O)(=O)c1ccc(N/N=C2\\C(=O)Nc3ccc(-c4cnco4)cc32)cc1",
    "u": "%",
    "inhibition": 23.3
  },
  {
    "compound.string": "CN(C)CCCNc1nccc(-c2c(-c3ccc(F)cc3)nn3cc(C(F)(F)F)ccc23)n1",
    "u": "%",
    "inhibition": 7.89
  },
  {
    "compound.string": "COc1ccc2ncn(-c3cc(O[C@H](C)c4ccccc4Cl)c(C(N)=O)s3)c2c1",
    "u": "%",
    "inhibition": 5.31
  },
  {
    "compound.string": "FC(F)(F)c1cccc(Nc2nccc(-c3cnn4nc(-c5ccccc5)ccc34)n2)c1",
    "u": "%",
    "inhibition": 6.11
  },
  {
    "compound.string": "COc1cc2ncn(-c3cc(OCCc4ccccc4)c(C(N)=O)s3)c2cc1OC",
    "u": "%",
    "inhibition": 11.2
  },
  {
    "compound.string": "O=C(Nc1ccc(Oc2ccc3[nH]c(NC(=O)c4ccccc4)nc3c2)cc1)Nc1cc(C(F)(F)F)ccc1F",
    "u": "%",
    "inhibition": 21.8
  },
  {
    "compound.string": "O=C1Nc2ccccc2/C1=C/Nc1ccc(-n2cncn2)cc1",
    "u": "%",
    "inhibition": 11.7
  },
  {
    "compound.string": "c1ccc(-c2n[nH]cc2-c2ccnc(-c3ccc(OCCN4CCOCC4)cc3)c2)nc1",
    "u": "%",
    "inhibition": 4.55
  },
  {
    "compound.string": "O=C1NC(=O)C(c2cccc(Cl)c2)=C1Nc1ccc(Cl)c(C(=O)O)c1",
    "u": "%",
    "inhibition": 3.65
  }
]
